- System: SW-620 colon
- protocol-details: NCI-60 one-dose screen, 48 h (100 = growth as untreated, 0 = no growth, -100 = all killed)
- condition-set: 10 µM unless noted
This is part of a sample that, as a whole, favours compounds with a hit. Of some 83,000 tested, about 20% had one in any assay.
Entries and their measured growth follow.

>  <compound>
NC(CSC(c1ccccc1)(c1ccccc1)c1ccccc1)C(=O)NCC(=O)O (stereo unspecified)

>  <measurement-unit>
%

>  <growth>
41.6

$$$$
>  <compound>
O=CN/N=C/c1ccc(Cl)c([N+](=O)[O-])c1

>  <measurement-unit>
%

>  <growth>
17.6

$$$$
>  <compound>
COc1cc(/C=C/C(=O)c2ccc(F)cc2)ccc1OCCCCOc1cc2c(cc1OC)C(=O)N1CCCC1C=N2 (stereo unspecified)

>  <measurement-unit>
%

>  <growth>
-59

$$$$
>  <compound>
CCCCCCCCCCCCCCCCCC1=NCCN1CCNC(C)=O

>  <measurement-unit>
%

>  <growth>
107

$$$$
>  <compound>
COc1ccc2sc(-n3nc4nc5n(c(=O)c4c3N)-c3ccccc3Sc3ccccc3-5)nc2c1

>  <measurement-unit>
%

>  <growth>
95.6

$$$$
>  <compound>
COC(=O)C(N)CC(C)C (stereo unspecified)

>  <measurement-unit>
%

>  <growth>
103

$$$$

* * *

- Test system: K-562 leukemia
- protocol-details: NCI-60 one-dose screen, 48 h
- condition-set: 10 µM unless noted
- Experimental: Cells are grown in 96 well plates and exposed to the test compound for 48 hours. Compounds are tested at a single concentration, which is 10^-5 M for most compounds. The reported endpoint is percent growth (GI% or GIPRCNT), where numbers from 0 - 100% represent growth inhibition, and numbers from -100% - 0 represent cell death. For example, a value of 40 represents 60% growth inhibition. A value of 0 means no net growth occurred over the course of the experiment. […]
About 83,000 compounds went through this panel and 20% of them were active in at least one assay; those are over-represented in the sample as a whole. The source made the active and inactive calls. The calls were made as follows: active = growth percent below 10; inactive = the rest.
Labels: y = active, n = inactive

>  <molecule>
COc1cc(-c2nn(-c3ccc(NC(=O)c4ccc(Cl)c(Cl)c4)cc3)cc2-c2ccncc2)ccc1Cl

>  <cat>
n

$$$$
>  <molecule>
CC[n+]1c(C)ccc2cc(C)ccc21

>  <cat>
n

$$$$
>  <molecule>
O=C1/C(=N\c2cc(=O)[nH]n2S(=O)(=O)c2ccccc2)Nc2ccccc21

>  <cat>
n

$$$$
>  <molecule>
COc1cc(NC(C)CCCN)c2nc(C)ccc2c1OC (configuration not stated)

>  <cat>
n

$$$$
>  <molecule>
CCCCCCCCCCC(C[N+](C)(C)C/C=C/c1ccccc1)C(O)c1ccccc1 (configuration not stated)

>  <cat>
y

$$$$
>  <molecule>
COC(=O)c1ccc(C(=Nc2ccc(N(C)C(=O)CN3CCN(C)CC3)cc2)c2c(O)[nH]c3ccc(C(=O)OC)cc23)cc1

>  <cat>
y

$$$$
>  <molecule>
O=C(Oc1ccccc1)c1ccccc1Cl

>  <cat>
n

$$$$
>  <molecule>
Nc1nc2c(c3cnccc13)C(c1ccc(Cl)c(Cl)c1)Cc1cnccc1-2 (configuration not stated)

>  <cat>
y

$$$$
>  <molecule>
O=C(N/N=C\c1ccc(Cl)cc1)C(=O)N/N=C\c1ccc(Cl)cc1

>  <cat>
n

$$$$
>  <molecule>
CCC(C)(CC)c1ccc(O)c(C)c1

>  <cat>
n

$$$$
>  <molecule>
COC1(OC)N=C(N)C2(C#N)C3(C(=O)Nc4ccccc43)C12C#N (configuration not stated)

>  <cat>
n

$$$$
>  <molecule>
CCOC(=O)CCCCCCCCC(=O)OCC

>  <cat>
n

$$$$
>  <molecule>
CCCCCCCCC1OC1CCCCCCCC(=O)O (configuration not stated)

>  <cat>
n

$$$$
>  <molecule>
CCn1cnc(C[C@H](NC(=O)[C@@H](NC(=O)Nc2cc(C(F)(F)F)cc(C(F)(F)F)c2)C(C)C)C(=O)OC)c1

>  <cat>
y

$$$$
>  <molecule>
O=C1C=C(OCC=C(C(F)(F)F)C(F)(F)F)c2ccccc2C1=O

>  <cat>
y

$$$$
>  <molecule>
COc1cc2c(c3c1c(=O)c1cccc(F)c1n3C)C=CC(C)(C)O2

>  <cat>
n

$$$$
>  <molecule>
CC(C)OC(=O)c1ccc2n1CCCc1cnc(Nc3ccccc3)nc1-2

>  <cat>
n

$$$$
>  <molecule>
C/C=C/C/C=C/[C@H](C)C[C@H](O)[C@@H]1C[C@@H]2O[C@H]2/C=C/[C@@H]2OC(C)(C)O[C@H]2/C=C/C[C@H](C)CC(=O)O1

>  <cat>
n

$$$$
>  <molecule>
CC(C)(C)C(=O)CCCCCCCC/C=C/CCCC(O)c1ccco1 (configuration not stated)

>  <cat>
n

$$$$
>  <molecule>
CC(=O)O.[In]

>  <cat>
n

$$$$
>  <molecule>
Nc1nc2cc(O)ccc2n2cc3c(F)cccc3c12

>  <cat>
n

$$$$
>  <molecule>
O=C1C(Br)=CC2C1C1C3CCC3C2(Br)C12OCCO2 (configuration not stated)

>  <cat>
n

$$$$
